B1: LINE1-full (parent)
chain: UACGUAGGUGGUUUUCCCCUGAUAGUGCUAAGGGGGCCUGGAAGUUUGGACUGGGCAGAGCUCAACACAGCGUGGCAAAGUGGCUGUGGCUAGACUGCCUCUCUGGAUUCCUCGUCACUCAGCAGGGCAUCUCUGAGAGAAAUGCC

Variants of: B1
RUN_DESCRIPTION: self-cleavage, relative activity (ratio to wild type); higher = more cleavage; in vitro, sequencing; the parent is a self-cleaving ribozyme
RECORDED_ENDPOINT: self-cleavage
Answer using only a numeral; do not append any unit.

These recorded examples may help you get a feel for the data.
1. UACGUAGGUGGUUUUCCCCUGAUAGUGCUAAGGGGGCCUGGAAGUUUGGACUGGGCAGAGCUCAACACCGCGUGGCAAAGUGGCUGUGGCUAGACUGCCUCUCUGGAUUCCUCGUCACUCAGCAGGGCAUAUCUGAGAGAAAUGCC [A69C C131A] | 0.09
2. UACGUAGGUGGUUUUCCCCCGAUAGUGCUAAGGGGGCCUGGAAGUUUGGACUGGGCAGAGCUCAACACAGCGUGGCAAAGUGGCUGUGGCUAGACCGCCUCUCUGGAUUCCUCGUCACUCAGCAGGGCAUCUCUGAGAGAAAUGCC [U20C U96C] | 0.08
3. UACGUAGGUGGUUUUCCCCUGAUAGUGCUAAGGGGCCCUGGAAGUUUGGACUGGGCAGAGCUCAACACAGCGUGGCAAAGUGGCUGUGGCUAGACUGCCUCUCUGGAUUCCUCGUCGCUCAGCAGGGCAUCUCUGAGAGAAAUGCC [G36C A117G] | 1.51
4. UACGUAGGUGGUUUUCCCCUGAUAGUGCUAAGGGGGCCUGGAAGUUUGGACUGGGCAGAGCUCCACACAGCGUGGCAAAGUGGCUGUGGCUAGACUGCCUCUCUGGAUUCCUCGUCACUCAGCAGGGCAUCUCUGAGAGAAACGCC [A64C U143C] | 0.35
5. UACGUAGGUGGUUUUCCCCUGAUAGUGCUAAGGGGGCCAGGAAGUUUGGACUGGGCAGGGCUCAACACAGCGUGGCAAAGUGGCUGUGGCUAGACUGCCUCUCUGGAUUCCUCGUCACUCAGCAGGGCAUCUCUGAGAGAAAUGCC [U39A A59G] | 0.08
6. UACGUAGGUGGUUUUCCCCUGAUAGUGCUAAGGGGGCCUGGAAGUUUGGACUGGGCAGAGCUCAACACGGCGUGGCAAGGUGGCUGUGGCUAGACUGCCUCUCUGGAUUCCUCGUCACUCAGCAGGGCAUCUCUGAGAGAAAUGCC [A69G A79G] | 0.31
7. UACGUAGGUGGUUUUCCCCUGAUAGUGCUAAUGGGGCCUGGAAGUUUGGACAGGGCAGAGCUCAACACAGCGUGGCAAAGUGGCUGUGGCUAGACUGCCUCUCUGGAUUCCUCGUCACUCAGCAGGGCAUCUCUGAGAGAAAUGCC [G32U U52A] | 1.85
8. UACGUAGGUGGUUUUCCCCUGAUAGUGCUAAGGGGGCCUGGAAGUUUGGACUGGGCAGAGCUCAACACAGCGUGGCAAAGUGGCUGUGGCUAGACUGCCUCUCUGGAUUCCUCGUCGCUCAGCAGGGCAUCUCUGAGAGAGAUGCC [A117G A141G] | 1.71

Req: Report self-cleavage for UACGUAAGUGGUUUUCCCCUGAUAGUGCUAAGGGGGCCCGGAAGUUUGGACUGGGCAGAGCUCAACACAGCGUGGCAAAGUGGCUGUGGCUAGACUGCCUCUCUGGAUUCCUCGUCACUCAGCAGGGCAUCUCUGAGAGAAAUGCC [G7A U39C] please.
Resp: 0.83

Req: Report self-cleavage for UACGUAGGUGGUUUUCCCCUGAUAGUGCUAAUGGGGCCUGGAAGUUUGGACUGGGCAGAGCUCAACACAGCGUGGCAAAGUGGCUGUGGCUAGGCUGCCUCUCUGGAUUCCUCGUCACUCAGCAGGGCAUCUCUGAGAGAAAUGCC [G32U A94G] please.
Resp: 0.2
